Measured on: isolated recombinant JAK1 kinase domain (Homo sapiens (Human), UniProt P23458)
Sequence (P23458 875-1153): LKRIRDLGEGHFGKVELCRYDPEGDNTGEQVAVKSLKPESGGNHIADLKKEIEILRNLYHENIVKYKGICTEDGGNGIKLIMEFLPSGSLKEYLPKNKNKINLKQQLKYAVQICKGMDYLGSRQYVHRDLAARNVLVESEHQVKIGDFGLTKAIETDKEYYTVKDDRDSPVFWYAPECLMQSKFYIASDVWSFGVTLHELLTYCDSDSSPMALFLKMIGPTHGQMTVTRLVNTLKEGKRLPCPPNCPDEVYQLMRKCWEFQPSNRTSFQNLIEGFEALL
Protocol details: JAK1 enzyme assay (Caliper LabChip, peptide phosphorylation)
Format: biochemical
Condition parameters: isolated recombinant JAK1 kinase domain, 25 μM ATP
Please respond with reported pKi for every item in the list.
Lab note — pKi values are minus log10 of concentrations in M.

**Query** Hello, please tell me recorded pKi for this one: O=C1CC(N2CCN(C(=O)Cn3cc(NC(=O)c4cnn5cccnc45)c(-c4cc(Cl)ccc4OC(F)F)n3)CC2)CO1 (centres unmarked) [Example 392]
**Result** 9.40

**Query** Hello, please tell me recorded pKi for this one: N#CC1(c2ccccc2)CCN(C(=O)Cn2cc(NC(=O)c3c(N)nn4cccnc34)c(-c3cc(Cl)ccc3OC(F)F)n2)CC1 [Example 283]
**Result** 9.26

**Query** Hello, please tell me recorded pKi for this one: Nc1nn2cccnc2c1C(=O)Nc1cn(C2CCN(CCCN3CCN(Cc4ccccc4)C3=O)CC2)nc1-c1cc(Cl)ccc1OC(F)F [Example 166]
**Result** 9.04

**Query** Hello, please tell me recorded pKi for this one: O=C(Nc1cn(CC(O)CN2CCOCC2)nc1-c1cc(Cl)ccc1OC(F)F)c1cnn2cccnc12 (centres unmarked) [Example 403]
**Result** 8.84

**Query** Hello, please tell me recorded pKi for this one: CN(CCc1ccccc1)Cc1nc(-c2cc(Cl)ccc2OC(F)F)c(NC(=O)c2cnn3cccnc23)s1 [Example 261]
**Result** 7.75

**Query** Hello, please tell me recorded pKi for this one: O=C(Nc1sc(N2CCN(CC(F)(F)F)CC2)nc1-c1cc(Cl)ccc1OC(F)F)c1cnn2cccnc12 [Example 208]
**Result** 8.86

**Query** Hello, please tell me recorded pKi for this one: CCN1CCN(C(=O)Cn2cc(NC(=O)c3c(N)nn4cccnc34)c(-c3cc(Cl)ccc3OC(F)F)n2)CC1 [Example 247]
**Result** 9.26

**Query** Hello, please tell me recorded pKi for this one: O=C(Nc1cn(CC(=O)N2C[C@H]3CN(CCc4ccccc4)C[C@H]3C2)nc1-c1cc(Cl)ccc1OC(F)F)c1cnn2cccnc12 [Example 13]
**Result** 9.14

**Query** Hello, please tell me recorded pKi for this one: O=C(Nc1cn(CC(=O)N2CCC(N(CCc3ccccc3)CC(F)(F)F)CC2)nc1-c1cc(Cl)ccc1OC(F)F)c1cnn2cccnc12 [Example 103]
**Result** 8.40

**Query** Hello, please tell me recorded pKi for this one: CN(C)C[C@@H]1CCCN1C(=O)Cn1cc(NC(=O)c2c(N)nn3cccnc23)c(-c2cc(Cl)ccc2OC(F)F)n1 [Example 79]
**Result** 8.34

**Query** Hello, please tell me recorded pKi for this one: CC1(O)CCN(C(=O)Cn2cc(NC(=O)c3cnn4cccnc34)c(-c3cc(Cl)ccc3OC(F)F)n2)C1 (centres unmarked) [Example 269]
**Result** 9.48

**Query** Hello, please tell me recorded pKi for this one: O=C(Nc1cn(CC(=O)N2CCC(N3Cc4ccc(Cl)cc4C3)CC2)nc1-c1cc(Cl)ccc1OC(F)F)c1cnn2cccnc12 [Example 135]
**Result** 9.28

**Query** Hello, please tell me recorded pKi for this one: O=C(Nc1cn(CC(=O)N2CCN(Cc3ncco3)CC2)nc1-c1cc(Cl)ccc1OC(F)F)c1cnn2cccnc12 [Example 380]
**Result** 9.52

**Query** Hello, please tell me recorded pKi for this one: O=C(Nc1sc(N2CCC(N3CC(F)(F)C3)CC2)nc1-c1cc(Cl)ccc1OC(F)F)c1cnn2cccnc12 [Example 196]
**Result** 8.76

Reference for the values: patent US9346815B2
